# pIC50 listing for each entry below
# tested.system: OCT1 (Homo sapiens)
# Sequence (O15245 whole entry): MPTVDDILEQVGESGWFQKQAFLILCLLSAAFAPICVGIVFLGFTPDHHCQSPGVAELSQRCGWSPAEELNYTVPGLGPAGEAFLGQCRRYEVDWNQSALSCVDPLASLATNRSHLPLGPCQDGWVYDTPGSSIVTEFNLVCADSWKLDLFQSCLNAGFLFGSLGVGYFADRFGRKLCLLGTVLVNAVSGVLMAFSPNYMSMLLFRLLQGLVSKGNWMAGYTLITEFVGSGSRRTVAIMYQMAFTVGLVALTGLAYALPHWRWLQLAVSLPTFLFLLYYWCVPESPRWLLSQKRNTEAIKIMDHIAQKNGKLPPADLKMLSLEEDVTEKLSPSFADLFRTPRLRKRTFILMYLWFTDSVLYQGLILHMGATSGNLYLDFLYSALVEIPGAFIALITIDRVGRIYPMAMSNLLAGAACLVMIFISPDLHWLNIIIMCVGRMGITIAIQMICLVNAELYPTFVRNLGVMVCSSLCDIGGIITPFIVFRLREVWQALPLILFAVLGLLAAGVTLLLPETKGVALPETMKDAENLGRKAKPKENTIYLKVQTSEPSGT
# assay.method.text: Inhibition of OCT1-mediated [3H]MPP+ uptake in HEK293-OCT1 cells
pIC50: −log10 of the molar value.

compound	pIC50
CC(C)=CCC[C@](C)(O)[C@H]1CC[C@]2(C)[C@@H]1[C@H](O)C[C@@H]1[C@@]3(C)CC[C@H](O[C@@H]4O[C@H](CO)[C@@H](O)[C@H](O)[C@H]4O)C(C)(C)[C@@H]3CC[C@]12C [Rh2, ginsenoside Rh2]	< 4.00
CC(C)=CCC[C@](C)(O[C@@H]1O[C@H](CO)[C@@H](O)[C@H](O)[C@H]1O)[C@H]1CC[C@]2(C)[C@@H]1[C@H](O)C[C@@H]1[C@@]3(C)CC[C@H](O)C(C)(C)[C@@H]3[C@@H](O[C@@H]3O[C@H](CO)[C@@H](O)[C@H](O)[C@H]3O[C@@H]3O[C@@H](C)[C@H](O)[C@@H](O)[C@H]3O)C[C@]12C [Re, ginsenoside Re]	< 4.00

---

# assay.method.text: Pharmacokinetics of iv valsartan in rats with or without repeated iv Rc
# Assay type: in vivo
# measurement.setup: rat, plasma, 1 mg/kg, valsartan 1 mg/kg iv, after Rc 3 mg/kg/day iv for 5 days
measured.property: half-life (h)

> print(dat)
                                   molecule  uom  result
1  CCCCC(=O)N(Cc1ccc(-c2ccccc2-c2nnn[nH]2)cc1)[C@H](C(=O)O)C(C)C [Valsartan, valsartan]    h     3.3

---

# assay.method.text: in vivo
# measurement.setup: rat, iv, 1 mg/kg, CL
# Description: Quantification was performed in the selected reaction-monitoring mode at m/z 436.1 → 291.0 for valsartan and m/z 336.1 → 320.0 for berberine. […] The intraday and interday precision ranged from 1.80% to 9.23%.
measured.property: clearance

> print(dat)
                           molecular.string  measured.property        result
1  CCCCC(=O)N(Cc1ccc(-c2ccccc2-c2nnn[nH]2)cc1)[C@H](C(=O)O)C(C)C          clearance  20 mL/min/kg

---

# assay.method.text: Plasma pharmacokinetics of ginsenosides in rats after 1-week repeated RGE
# measurement.setup: rat, plasma, po, 1.5 g/kg/day
measured.property: AUC (ng·h/mL)

compound	uom	result
CC(C)=CCC[C@](C)(O[C@@H]1O[C@H](CO[C@@H]2O[C@@H](CO)[C@H](O)[C@H]2O)[C@@H](O)[C@H](O)[C@H]1O)[C@H]1CC[C@]2(C)[C@@H]1[C@H](O)C[C@@H]1[C@@]3(C)CC[C@H](O[C@@H]4O[C@H](CO)[C@@H](O)[C@H](O)[C@H]4O[C@@H]4O[C@H](CO)[C@@H](O)[C@H](O)[C@H]4O)C(C)(C)[C@@H]3CC[C@]12C [Rc, ginsenoside Rc]	ng·h/mL	321
CC(C)=CCC[C@](C)(O[C@@H]1O[C@H](CO[C@@H]2OC[C@H](O)[C@H](O)[C@H]2O)[C@@H](O)[C@H](O)[C@H]1O)[C@H]1CC[C@]2(C)[C@@H]1[C@H](O)C[C@@H]1[C@@]3(C)CC[C@H](O[C@@H]4O[C@H](CO)[C@@H](O)[C@H](O)[C@H]4O[C@@H]4O[C@H](CO)[C@@H](O)[C@H](O)[C@H]4O)C(C)(C)[C@@H]3CC[C@]12C [Rb2, ginsenoside Rb2]	ng·h/mL	283
CC(C)=CCC[C@](C)(O[C@@H]1O[C@H](CO)[C@@H](O)[C@H](O)[C@H]1O)[C@H]1CC[C@]2(C)[C@@H]1[C@H](O)C[C@@H]1[C@@]3(C)CC[C@H](O[C@@H]4O[C@H](CO)[C@@H](O)[C@H](O)[C@H]4O[C@@H]4O[C@H](CO)[C@@H](O)[C@H](O)[C@H]4O)C(C)(C)[C@@H]3CC[C@]12C [Rd, ginsenoside Rd]	ng·h/mL	164
CC(C)=CCC[C@](C)(O[C@@H]1O[C@H](CO[C@@H]2O[C@H](CO)[C@@H](O)[C@H](O)[C@H]2O)[C@@H](O)[C@H](O)[C@H]1O)[C@H]1CC[C@]2(C)[C@@H]1[C@H](O)C[C@@H]1[C@@]3(C)CC[C@H](O[C@@H]4O[C@H](CO)[C@@H](O)[C@H](O)[C@H]4O[C@@H]4O[C@H](CO)[C@@H](O)[C@H](O)[C@H]4O)C(C)(C)[C@@H]3CC[C@]12C [Rb1, ginsenoside Rb1]	ng·h/mL	455
